Items are presented alongside their recorded TGI.
# System: UACC-257 melanoma
# method summary: NCI tumour cell line growth inhibition, 48 h

| molecule | measured target | reported metric | assay value |
| --- | --- | --- | --- |
| CCOC(=O)c1cc2cc(N(C(C)=O)C(C)=O)ccc2s1 | UACC-257 melanoma | TGI | > 100 µM |
| O=C(Nc1ccc(-c2nc3cc4ccccc4cc3[nH]2)cc1)c1cccc(Br)c1 | UACC-257 melanoma | TGI | 52.3 µM |

Could you now consider this next molecule?
[Q] Quick one: give measured TGI for COc1ccc2c(c1)C(N)CC2=O (stereo unspecified)
[A] > 100 µM
